Each recorded value in this set is attributed to the NIST ThermoML archive (doi:10.1021/je800404f).

So I've got a bunch of compounds here, and I need their refractive index values.
test: refractive index (Na D-line) (dimensionless); details: 295.1 K; 101.33 kPa; Liquid; Standard Abbe refractometry
When you answer, write just the number.

Value of measured refractive index for the entry CCCCCCCCCO [nonan-1-ol] : 1.4322

Value of measured refractive index for the entry O [water] : 1.333

Value of measured refractive index for the entry CC#N [acetonitrile] : 1.3441

Value of measured refractive index for the entry CCCCCCC(=O)O [heptanoic acid] : 1.4175
